System: NIH 3T3 cells transformed by the T24 activated human H-ras gene
Assay: Ras-Transformed Cell Phenotype Reversion Assay
Assay type: cell-based, mouse
Conditions: NIH3T3; cell counts after 72 hours proliferation
Property: IC50; scope: individual molecules
// note: answer is a bare numeric in nM

Completed entries (count: 3):
Cn1cncc1C(O)(c1ccc(Cl)cc1)c1cc2c3c(c1)c(-c1cccc(Cl)c1)cc(=O)n3CO2 (racemic) :: 48
Cn1cncc1C(c1ccc(Cl)cc1)c1cc2c3c(c1)c(-c1cccc(Cl)c1)cc(=S)n3CC2 (racemic) :: 37.1
Cn1cncc1C(O)(c1ccc(Cl)cc1)c1cc2c3c(c1)c(-c1cccc(Cl)c1)cc(=O)n3CC2 (racemic) :: 7.8

QUERY: Entry Cn1cncc1C(N)(c1ccc(Cl)cc1)c1cc2c3c(c1)c(-c1cccc(Cl)c1)cc(=O)n3CC2 (racemic) : reported IC50 = ?
RESULT: 6.4

QUERY: Entry Cn1cncc1C(c1ccc(Cl)cc1)c1cc2c3c(c1)c(-c1cccc(Cl)c1)cc(=O)n3CC2 (racemic) [Compound 6, monohydrate] : reported IC50 = ?
RESULT: 32

QUERY: Entry Cc1nc2cc(C(O)(c3ccc(Cl)cc3)c3cncn3C)cc3c(-c4cccc(Cl)c4)cc(=O)n1c23 (racemic) : reported IC50 = ?
RESULT: 373
